# System: U251 CNS
# TEST_SUMMARY: NCI-60 one-dose screen, 48 h (100 = growth as untreated, 0 = no growth, -100 = all killed)
# CONDITION_SET: 10 µM unless noted
The panel holds about 83,000 compounds, 20% with a hit somewhere; the sample as a whole holds those more often.
MEASUREMENT_NAME: growth (%)
Report the figure in % without appending any unit label.

Would you please look over these solved cases?
COMPOUND	MEASUREMENT_UNITS	growth
O=C1/C(=C/C2=Cc3ccccc3OC2)SC(=S)N1c1ccccc1F	%	102
CCCSc1nc(NCCc2c[nH]c3ccccc23)c(C#N)c(-c2ccc(F)cc2)n1	%	28.2
C=C1CCC2C3(C)COC(c4ccco4)OC3CCC2(C)C1CC(Sc1ccccc1)C1=CCOC1=O (stereo not drawn)	%	31.9
C#CCOc1cc(N(CC)CC)ccc1C(C(=O)NC(C)(C)C)N(C(=O)C1CCc2cc(F)ccc2O1)c1cc(C)cc(C)c1 (stereo not drawn)	%	19.5
N=C1N=C(SCc2nc3ccccc3[nH]2)NC(=O)/C1=C/c1ccc(Cl)cc1	%	105

Can you share its growth? I mean this compound: C=C1CC[C@@H]2[C@]3(C)COC(c4cn[nH]c4-c4cccc(Br)c4)O[C@@H]3CC[C@@]2(C)[C@@H]1C/C=C1/C(=O)OCC1O (stereo partly drawn)
-90.9

For the compound O=C(NNc1nc2cc(C(F)(F)F)ccc2n2cccc12)c1cnccn1 , what growth is on record?
-95.5

If you can, please state the reported growth value of COc1ccc2[nH]cc(-c3nnc(N)nc3-c3c[nH]c4ncc(Br)cc34)c2c1 .
76.1

Which growth value is on record for O=c1oc2ccc(Br)cc2cc1C1=CSc2nc3sc4c(c3c(=O)n2N=C1)CCCC4 ?
99.3

Reported growth for Cc1cccc(NC(=O)[C@]23CCC(C)(C)CC2C2=CCC4[C@@]5(C)C[C@@H](O)[C@H](O)[C@@](C)(CO)C5CC[C@@]4(C)[C@]2(C)CC3)c1 (stereo partly drawn) : what is it?
27.8

So what does the record say about growth for COc1ccc(-c2nc3ccc(C(=O)NN4C(=O)c5ccc([N+](=O)[O-])cc5C4=O)cc3[nH]2)cc1 ?
97

GET /values?readout=growth&item= CC1=C(C(=O)OCc2ccccc2)C(c2ccc(-n3cncn3)cc2)n2c(nc3ccccc32)N1 (stereo not drawn)
63.4

###

# Tested on: MDA-MB-468 breast
# TEST_SUMMARY: NCI-60 one-dose screen, 48 h
# CONDITION_SET: 10 µM unless noted
The panel holds about 83,000 compounds, 20% with a hit somewhere; the sample as a whole holds those more often. Active and inactive are the calls of the source. Rule for the calls: active = growth percent below 10; inactive = the rest.
The reply should name one outcome from Y for active, N for inactive

Study these solved cases before continuing.
COMPOUND	CLASSIFICATION
COc1cc2nc(SCc3ccccc3)n(-c3ccc(Cl)cc3)c(=O)c2cc1OC	Y
C=C1CCC2C3(C)COC(c4ccc(F)cc4)OC3CCC2(C)C1CC(O)C1=CCOC1=O (stereo not drawn)	N
COc1ccc(NC(=O)[C@H](C)N)cc1C(=O)Nc1cccc(C2CC(=O)c3c(cc(OC)c(OC)c3OC)O2)c1 (stereo partly drawn)	N
CC(C)(C)OC(=O)/C=C/c1cccc2c1C(=O)NC(C)(c1cc3cc(Cl)ccc3oc1=O)N2 (stereo not drawn)	N
CC1[C@H]2[C@H](C[C@H]3[C@@H]4CC=C5c6sc(Nc7ccccc7F)nc6CC[C@]5(C)[C@H]4CC[C@@]32C)O[C@]12CC[C@@H](C)CO2 (stereo partly drawn)	Y

Dear colleague, could you share the recorded outcome for COc1ccc(C(=O)Nc2n[nH]c(Nc3ccccc3)c2C#N)cc1 when you have a moment?
N

Recorded test call requested for O=[N+]([O-])c1ccc(/C=C/c2nc3ccccc3n3c(=S)[nH]nc23)cc1
N

Which outcome was assigned to C#CCOc1ccc(/C=N/Nc2nc(-c3ccc(F)cc3)cs2)cc1OC in this test?
N

Query: recorded result category for Cn1cc(-c2nc(N)nnc2-c2c[nH]c3ccc(F)cc23)c2cccnc21 in this test
Y

For COc1ccc(C(=O)/C=C/c2cccc(Cl)c2Cl)cc1S(N)(=O)=O , which call appears in the assay record?
Y
